Catalogue of pKd values
- test_system: von Willebrand factor (VWF) (Homo sapiens, UniProt P04275 P04275:764-2813)
- experiment_description: filter; Bmax 76%; 2 mM CaCl2, 37 C
- reported_conditions: tags: factor VIII free, Haematologic Technologies Inc; label: 5'-32P
pKd field: float, defined as -log10 of concentration (mol/L).

Worked examples, 4 binders total:
binder	test_readout	assay_value
ACGAACUGCCCUCGAUCGACGCACAGACGUACACG (ssRNA, 2'-F C and U; 2'-OH A and G; 3' idT) [T84]	pKd	8.43
ACGAACUGCCCUCUAUUUCAUUUGACGCACAGACGU (ssRNA, 2'-F C and U; 2'-OH A and G; 3' idT) [T93]	pKd	8.19
ACGAACUGCCCUCGAUCGACGCACAGACGUACCCG (ssRNA, 2'-F C and U; 2'-OH A and G; 3' idT) [T82]	pKd	8.28
ACGAACUGCCCUCGAUCGACGCACAGACGU (ssRNA, rAfCrGmAmAmCfUrGfCfCfCfUmCmGmAmUmCmGrAfCmGfCrAmCmAmGmAfCrGfU-idT) [T59 vrt13]	pKd	7.54

Prompt: Tell me its pKd given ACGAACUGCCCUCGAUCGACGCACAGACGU (ssRNA, rAfCrGmAmAmCfUrGfCfCfCfUmCmGmAmUmCmGrAfCrGfCrAmCmAmGmAfCrGfU-idT) [T59 vrt1] as the entry.
Completion: 8.82
